System: HCMV recombinant mutant virus (RV145)
experiment_summary: microbe, parasite or virus in culture
Type: cell-based, human cytomegalovirus
experimental_setup: Human betaherpesvirus 5, read-out: IC50 ug/ml HCMV, HCMV
endpoint_label: IC50

[
  {
    "compound": "O=C(Nc1ccc(NC(=S)NCCc2ccc(F)cc2)cc1)c1ccccc1F [Example 553]",
    "system_under_test": "HCMV recombinant mutant virus (RV145)",
    "IC50": "> 0.5 µg/mL"
  }
]

Identify IC50 associated with the compound CC(NC(=S)Nc1ccc(NC(=O)c2ccc(F)cc2)cc1)c1ccc(F)cc1 (centres unmarked) [Example 801]
> 10 µg/mL

Specify reported IC50 for the compound shown: COCCOc1ccc(NC(=S)Nc2ccc(NC(=O)c3ccccc3F)cc2)cc1Cl [Example 996]
> 10 µg/mL

Fill in IC50 for record CC(NC(=S)Nc1ccc(NC(=O)c2ccccc2C(F)(F)F)cc1)c1cc2ccccc2o1 (centres unmarked) [Example 974]
> 10 µg/mL

Please indicate IC50 recorded for COc1cc(C)c(Cl)cc1NC(=S)Nc1ccc(NC(=O)c2ccccc2F)cc1 [Example 849]
> 10 µg/mL

Give me measured IC50, please, for this compound: COc1ccc(NC(=S)Nc2ccc(NC(=O)c3ccccc3F)cc2)cc1F [Example 995]
> 10 µg/mL

Give recorded IC50. COc1ccc(NC(=S)Nc2ccc(NC(=O)c3ccccc3F)cc2)cc1C(F)(F)F [Example 998]
> 10 µg/mL

* * *

IC50 by entry:
System: VZV strain Ellen
experiment_summary: VZV Antiviral (ELISA) Assay in human foreskin fibroblast cells
Assay type: cell-based, varicella-zoster virus
experimental_setup: Human alphaherpesvirus 3, Fibroblast, read-out: IC50 (ug/ml) VZV
Method: For the generation of stock VZV to be used in the assay, VZV strain Ellen (ATCC #VR-1367) is used to infect human foreskin fibroblast (HFF) cells at low multiplicity (less than 0.1) and incubated overnight at 37° C. in 5% CO2. […] Antiviral activity (IC50) of the test compound is determined by comparing the flourescence obtained in absence of compound to that obtained in the presence of compound.

Known results for compounds:
[
  {
    "cpd_smiles": "COc1c(Cl)cc(NC(=S)Nc2ccc(NC(=O)c3ccccc3F)cc2)cc1Cl",
    "IC50": "3.5 µg/mL"
  },
  {
    "cpd_smiles": "COc1cc(OC)c(NC(=S)Nc2ccc(NC(=O)c3ccccc3Br)cc2)cc1Cl",
    "IC50": "> 15 µg/mL"
  },
  {
    "cpd_smiles": "COc1cc(OC)c(NC(=S)Nc2ccc(NC(=O)c3ccccc3C)cc2)cc1Br",
    "IC50": "> 15 µg/mL"
  }
]

Next compound, IC50 to be filled in.
Quickly give me recorded IC50 for "COC(=O)c1cccc(NC(=S)Nc2ccc(NC(=O)c3ccccc3F)cc2)c1"
> 10 µg/mL

* * *

Test system: VZV strain Ellen
experiment_summary: VZV Antiviral (ELISA) Assay in human foreskin fibroblast cells
Format: cell-based, varicella-zoster virus
experimental_setup: Human alphaherpesvirus 3, Fibroblast, read-out: IC50 (ug/ml) VZV
Each entry below carries its reported log10 IC50.
Hey, these are logged values: log10 of IC50, µg/mL being the unit before logging.

Report log10 IC50, nothing else, for this molecule: CN(C)c1ccc(NC(=S)Nc2ccc(NC(=O)c3ccccc3F)cc2)cc1Cl [Example 852]
0.81

Input CN(C)c1cc(NC(=S)Nc2ccc(NC(=O)c3ccccc3F)cc2)cc(C(F)(F)F)c1 [Example 567] , output reported log10 IC50.
0.30

Identify measured log10 IC50 corresponding to Cc1ccc([C@H](C)NC(=S)Nc2ccc(NC(=O)c3ccccc3F)cc2)cc1 [Example 1011]
-0.26

Entry CC(NC(=S)Nc1ccc(NC(=O)c2cc3ccccc3cn2)cc1)c1ccc(Br)cc1 (stereo not shown) [Example 987] needs its log10 IC50 filled in; supply it.
-1.34

* * *

Tested on: HCMV recombinant mutant virus (RV145)
experiment_summary: microbe, parasite or virus in culture
Assay type: cell-based, human cytomegalovirus
experimental_setup: Human betaherpesvirus 5, read-out: IC50 ug/ml HCMV, HCMV
# IC50 listing for each entry below

[
  {
    "compound": "CC(NC(=S)Nc1ccc(NC(=O)c2ccccc2C(F)(F)F)cc1)c1ccc(F)cc1 (centres unmarked)",
    "IC50": "4 µg/mL"
  },
  {
    "compound": "O=C(Nc1ccc(NC(=S)NCCc2ccccc2)cc1)c1ccccc1F",
    "IC50": "> 0.5 µg/mL"
  }
]

Look up and report IC50, with HCMV recombinant mutant virus (RV145) as system, for COc1ccccc1C(=O)Nc1ccc(NC(=S)NC(C)c2ccc(C#N)cc2)cc1 (centres unmarked)
> 10 µg/mL

Name the value of IC50 reported for "O=C(Nc1ccc(NC(=S)NCc2ccc(F)c(F)c2)cc1)c1ccccc1F" when tested on HCMV recombinant mutant virus (RV145).
> 0.5 µg/mL

Find the measured IC50 of "O=C(Nc1ccc(NC(=S)Nc2cccc(S(=O)(=O)CCO)c2)cc1)c1ccccc1F" with HCMV recombinant mutant virus (RV145) as test system.
> 10 µg/mL

* * *

Test system: VZV strain Ellen
experiment_summary: VZV Antiviral (ELISA) Assay in human foreskin fibroblast cells
Type: cell-based, varicella-zoster virus
experimental_setup: Human alphaherpesvirus 3, Fibroblast, read-out: IC50 (ug/ml) VZV
Label Criterion met when IC50 < 3 µg/mL; otherwise Criterion not met.

[
  {
    "compound": "O=C(Nc1ccc(NC(=S)Nc2ccc(Cl)c(Cl)c2)cc1)c1ccccc1F",
    "system_under_test": "VZV strain Ellen",
    "assigned_class": "Criterion not met"
  },
  {
    "compound": "CC(NC(=S)Nc1ccc(NC(=O)c2ccc(O)cc2)cc1)c1ccc(F)cc1 (centres unmarked)",
    "system_under_test": "VZV strain Ellen",
    "assigned_class": "Criterion not met"
  },
  {
    "compound": "CC(NC(=S)Nc1ccc(NC(=O)c2ccccc2F)cc1)c1ccc(C(F)(F)F)cc1 (centres unmarked)",
    "system_under_test": "VZV strain Ellen",
    "assigned_class": "Criterion not met"
  },
  {
    "compound": "CC(NC(=S)Nc1ccc(NC(=O)c2cccc(C#N)c2)cc1)c1ccc(F)cc1 (centres unmarked)",
    "system_under_test": "VZV strain Ellen",
    "assigned_class": "Criterion not met"
  },
  {
    "compound": "O=C(Nc1ccc(NC(=S)NCCOc2ccccc2)cc1)c1ccccc1F",
    "system_under_test": "VZV strain Ellen",
    "assigned_class": "Criterion not met"
  }
]

IC50 under 3 µg/mL? Item: CC(NC(=S)Nc1ccc(NC(=O)c2ccccc2F)cc1)c1cccc(C#N)c1 (centres unmarked)
Criterion not met

Is it true that IC50 reported for CC(NC(=S)Nc1ccc(NC(=O)c2ccccc2I)cc1)c1ccc(F)cc1 (centres unmarked) is less than 3 µg/mL?
Criterion not met

Check if IC50 falls below 3 µg/mL for "CN1CCC(N(C)c2ccc(NC(=S)Nc3ccc(NC(=O)c4ccccc4F)cc3)cc2Cl)CC1" .
Criterion not met

Strictly below 3 µg/mL in IC50? CC(NC(=S)Nc1ccc(C(=O)Nc2ccc(F)cc2)cc1)c1ccc(F)cc1 (centres unmarked)
Criterion met

Strictly below 3 µg/mL: is that where IC50 of "COc1cc(C)c(Cl)cc1NC(=S)Nc1ccc(NC(=O)c2ccccc2C)cc1" sits?
Criterion not met

Lab note: IC50 threshold 3 µg/mL. Does this compound come in strictly under it? CC(NC(=S)Nc1ccc(NC(=O)c2nccc3ccccc23)cc1)c1ccc(F)cc1 (centres unmarked)
Criterion met

Dear colleague, could you confirm whether IC50 of CC(NC(=S)Nc1ccc(NC(=O)c2cc3ccccc3cn2)cc1)c1ccc(F)cc1 (centres unmarked) falls below 3 µg/mL? Thanks.
Criterion met

Find out if reported IC50 for "COc1cc(OCC(F)(F)F)ccc1NC(=S)Nc1ccc(NC(=O)c2ccccc2F)cc1" is less than 3 µg/mL
Criterion not met

Input "COc1ccc(NC(=S)Nc2ccc(NC(=O)c3ccccc3F)cc2)cc1C(F)(F)F" ; condition: IC50 strictly below 3 µg/mL. Does it hold?
Criterion not met

Input CC(NC(=S)Nc1ccc(NC(=O)c2ccccc2C(F)(F)F)cc1)c1ccc(F)cc1 (centres unmarked) ; condition: IC50 strictly below 3 µg/mL. Does it hold?
Criterion met

Does the reported IC50 of the following compound sit strictly below 3 µg/mL? CC(NC(=S)Nc1ccc(NC(=O)c2ccccc2F)cc1)c1ccc(F)cc1 (centres unmarked)
Criterion met

* * *

The entries below come with measured IC50 ug/ml HCMV values attached.
System: HCMV recombinant mutant virus (RV145)
experiment_summary: microbe, parasite or virus in culture
Assay type: cell-based, human cytomegalovirus
experimental_setup: HCMV

[
  {
    "compound": "O=C(CN1CCSCC1)Nc1ccc(NC(=S)Nc2ccc(NC(=O)c3ccccc3F)cc2)cc1Cl",
    "IC50 ug/ml HCMV": ">10 µg/mL"
  },
  {
    "compound": "CCCCOc1cccc(C(=O)Nc2ccc(NC(=S)Nc3cc(Cl)c(OC)cc3OC)cc2)c1",
    "IC50 ug/ml HCMV": ">10 µg/mL"
  }
]

Enter measured IC50 ug/ml HCMV, system HCMV recombinant mutant virus (RV145), for the compound shown: CC(NC(=S)Nc1ccc(NC(=O)c2ccccc2F)cc1)c1ccccc1Cl (centres unmarked)
1.1 µg/mL

State IC50 ug/ml HCMV on HCMV recombinant mutant virus (RV145). Entry: "O=C(Nc1ccc(NC(=S)Nc2cccc(O)c2)cc1)c1ccccc1F"
>10 µg/mL

# assay system HCMV recombinant mutant virus (RV145): give IC50 ug/ml HCMV of "COc1cccc(C(=O)Nc2ccc(NC(=S)Nc3ccc(N(C)C4CCCCC4)c(Cl)c3)cc2)c1"
>10 µg/mL

Under HCMV recombinant mutant virus (RV145): report IC50 ug/ml HCMV of "COc1cc(OC)c(NC(=S)Nc2ccc(NC(=O)c3cccc4ccccc34)cc2)cc1Cl" .
8 µg/mL

Quote IC50 ug/ml HCMV with test system HCMV recombinant mutant virus (RV145) for "COc1cc(OC)c(NC(=S)Nc2ccc(NC(=O)c3ccccc3NC(C)=O)cc2)cc1Cl"
>10 µg/mL

// fetch IC50 ug/ml HCMV for "C[C@H](NC(=S)Nc1ccc(NC(=O)c2nccc3ccccc23)cc1)c1ccc(Br)cc1" ; system: HCMV recombinant mutant virus (RV145)
8.1 µg/mL

Sourced from patent US6462055B2
